Origin of the recorded values: ChEMBL document CHEMBL1833945

system: Rattus norvegicus; assay: Neurotoxicity in Sprague-Dawley albino rat assessed as motor impairment at 50 mg/kg, po after 2 hrs by rotarod test; format: toxicity, organism-based; parameters: dose 50 mg/kg, route oral; conditions: in vivo

# molecule, Activity
measured = [
    ("O=C1NC(=O)C(c2ccccc2)(C2CC2)N1 (stereo not given)", "Non-toxic"),
    ("CCC1(C)CC(=O)NC1=O (stereo not given) [ETHOSUXIMIDE]", "Non-toxic"),
    ("O=C1NC(c2ccccc2)(C2CC2)C(=O)N1CN1CCOCC1 (stereo not given)", "Non-toxic"),
    ("O=C1NC(c2ccc(Cl)cc2)(C2CC2)C(=O)N1CN1CCOCC1 (stereo not given)", "Non-toxic"),
    ("O=C1NC(=O)C(c2ccc(Cl)cc2)(C2CC2)N1 (stereo not given)", "Non-toxic"),
]
